testDescription: coupled detection enzyme interference, dose response, artefact control for MgcRacGAP inhibitor project, biochemical, coupled enzyme counter-screen (AID 624351);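 note: signal is the ADP detection kit reading of free GDP without any GAP enzyme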
conditionNotes: ADP Hunter coupled enzyme counter-screen, fluorescence, no MgcRacGAP; series mostly up to 80 µM
In all, about 2,400 compounds went through this assay and about 1,400 (58%) were called active.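 Rule for the calls: active = inhibition of 30% or more at any tested dose; inconclusive = primary hits over the limit that were never retested; inactive = the rest.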 So high a share suggests a set chosen from earlier hits. This is one part of the list.
Pick from Y = active, N = inactive when you respond.

Worked set:
{"compound": "N#CCCN1CCN(CCC#N)c2ccccc21", "className": "Y"}
{"compound": "CC1=C(C)CS(=O)N(S(=O)(=O)c2ccc(Cl)cc2)C1 (configuration not stated)", "className": "N"}

Hey, what did the test say about CCN1/C(=C\c2ccc3ccccc3[n+]2CC)Sc2cc(C)ccc21 ?
N

Hey, what did the test say about Cc1ccc2nc(N(CCCN(C)C)C(=O)c3ccc4ncsc4c3)sc2c1 ?
N

Hey, what did the test say about Cc1c(C(=O)N/N=C/c2ccc(O)cc2)sc(=S)n1C ?
N

Hey, what did the test say about O=C(N/N=C/c1ccc(F)cc1)c1cc(-c2ccco2)nc2ccccc12 ?
N

Hey, what did the test say about O=C(N/N=C/c1ccc(O)cc1)c1csc2ccccc12 ?
Y

Hey, what did the test say about Cc1cccc(NC(=O)CCC(=O)N/N=C/c2ccc(O)cc2O)c1 ?
Y

----------
testDescription: coupled detection enzyme interference, dose response, artefact control for MgcRacGAP inhibitor project, biochemical, coupled enzyme counter-screen (AID 624351);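 note: signal is the ADP detection kit reading of free GDP without any GAP enzyme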
conditionNotes: ADP Hunter coupled enzyme counter-screen, fluorescence, no MgcRacGAP; series mostly up to 80 µM
Hit rate of the full screen: of about 2,400 compounds, about 1,400 (58%) were called active. So high a share suggests a set chosen from earlier hits. The list shows a part of the results.
testReadout: IC50

{"molecule": "O=c1[nH]c2ccccc2n2c(=S)[nH]nc12", "IC50": "78.8 µM (active)"}
{"molecule": "COc1cccc(OCC(O)CN2CCN(C)CC2)c1 (centres undefined)", "IC50": "inactive"}
{"molecule": "Cc1cc(-c2ccccc2)nc(N/N=C/c2ccc(O)cc2O)n1", "IC50": "61.3 µM (active)"}
{"molecule": "CCOc1ccc(C2NC(=O)C(C#N)=C(S)N2c2ccc(OC)cc2)cc1OC (centres undefined)", "IC50": "inactive"}
{"molecule": "CC(C)c1ccc(CNc2ccc(N3CCOCC3)cc2)cc1", "IC50": "7.52 µM (active)"}
{"molecule": "CCc1nc(Nc2ccc(O)cc2)c2oc3ccccc3c2n1", "IC50": "19.4 µM (active)"}
{"molecule": "Cc1ccn2c(Nc3ccc4c(c3)OCO4)c(-c3ccc(O)cc3)nc2c1", "IC50": "32.4 µM (active)"}
{"molecule": "CCOc1cc(/C=C2\\CN(CC)C/C(=C\\c3ccc(O)c(OCC)c3)C2=O)ccc1O", "IC50": "61.9 µM (active)"}
{"molecule": "CCc1nn(C(C)C(=O)N2CCN(c3ccc(OC)cc3)CC2)c(=O)c2cc3occc3n12 (centres undefined)", "IC50": "inactive"}
{"molecule": "CCOC(=O)C1Nc2ccc(C(=O)O)cc2C2C=CCC12 (centres undefined)", "IC50": "inactive"}

For reference, reported IC50 for CCc1nc(Nc2ccc(N3CCN(C(C)=O)CC3)cc2)c2oc3ccccc3c2n1 stands at 40.2 µM (active)

----------
testDescription: coupled detection enzyme interference, dose response, artefact control for MgcRacGAP inhibitor project, biochemical, coupled enzyme counter-screen (AID 624351);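 note: signal is the ADP detection kit reading of free GDP without any GAP enzyme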
conditionNotes: ADP Hunter coupled enzyme counter-screen, fluorescence, no MgcRacGAP; series mostly up to 80 µM
Out of some 2,400 compounds screened, about 1,400 (58%) were called active.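 How the source made its calls: active means inhibition of 30% or more at any tested dose; inconclusive means primary hits over the limit that were never retested; inactive means the rest.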 The set was probably picked from earlier hits. This is one part of the list.
Pick from class 1 for active, class 0 for inactive when you respond.

Worked set:
{"molecule": "COc1cc(/C=C2\\C(=O)N(C)C(=S)N2C)ccc1O", "className": "class 1"}
{"molecule": "C#CCOCCOCCOCCNc1nc(N2CCN(C(=O)C([C@@H](C)O)n3cc([C@@H](N)CCCCN)nn3)CC2)nc(N2CCN(C(=O)[C@H](CCCCN)n3cc(CN)nn3)CC2)n1 (some centres undefined)", "className": "class 0"}
{"molecule": "COc1cc(/C=C/C=C2/CC/C(=C/C=C/c3ccc(O)c(OC)c3)C2=O)ccc1O", "className": "class 0"}
{"molecule": "O=S(=O)(NC1=NCCCCC1)c1ccc2sc(NS(=O)(=O)c3ccc4ccccc4c3)nc2c1", "className": "class 0"}
{"molecule": "CN(C)c1ccc(NC2=C([N+](=O)[O-])CS(=O)(=O)C2)cc1", "className": "class 1"}
{"molecule": "CN(C)CCC(=O)N1C/C(=C/c2ccccc2)C(=O)/C(=C\\c2ccccc2)C1", "className": "class 0"}

Hey, what did the test say about Nc1nn2c(-c3ccccc3)cc(=O)[nH]c2c1N=Nc1ccc(O)cc1 ?
class 1

Hey, what did the test say about CN(C)c1ccc(Nc2ccc([N+](=O)[O-])cn2)cc1 ?
class 1

Hey, what did the test say about C[N+](C)(C)CCC(=O)N1C/C(=C/c2ccccc2)C(=O)/C(=C\c2ccccc2)C1 ?
class 0

----------
testDescription: coupled detection enzyme interference, dose response, artefact control for MgcRacGAP inhibitor project, biochemical, coupled enzyme counter-screen (AID 624351);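 note: signal is the ADP detection kit reading of free GDP without any GAP enzyme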
conditionNotes: ADP Hunter coupled enzyme counter-screen, fluorescence, no MgcRacGAP; series mostly up to 80 µM
Screen size: about 2,400 compounds; about 1,400 (58%) were called active. So high a share suggests a set chosen from earlier hits. The list shows a part of the results.
testReadout: IC50

Examples from the recorded data:
{"compound": "Oc1ccc(CCc2ccccn2)cc1", "IC50": "44.9 µM (active)"}
{"compound": "COc1cc(/C=N/NC2=NCCCCC2)ccc1O", "IC50": "27.6 µM (active)"}
{"compound": "OCCN(C=NC1=NN(c2cccc(C(F)(F)F)c2)CC1)CCO", "IC50": "42.2 µM (active)"}
{"compound": "COc1cc(/C=C2\\SC(=Nc3ccccc3)NC2=O)cc(Cl)c1O", "IC50": "82 µM (active)"}
{"compound": "Nc1nc2cc(S(=O)(=O)NC3=NCCCCC3)ccc2s1", "IC50": "inactive"}
{"compound": "COc1ccc(C(=O)/C=C/c2ccc(O)cc2)c2c1CC(O)C(C)(C)O2 (stereo not drawn)", "IC50": "52.3 µM (active)"}
{"compound": "C=CCc1cccc(Cl)c1OCCCNC1CCCC1", "IC50": "inactive"}
{"compound": "COc1cc(/C=C2\\SC(=Nc3ccc(Cl)c(C(=O)O)c3)NC2=O)c(Br)c(Br)c1O", "IC50": "37.5 µM (active)"}
{"compound": "CCc1nnc(N/N=C/c2cc(Br)c(O)cc2O)n1N", "IC50": "72.7 µM (active)"}
{"compound": "Cc1cccc(N2CCC(N=CN(C)C)=N2)c1", "IC50": "27.8 µM (active)"}

# context switch: different compound, same IC50
For reference, reported IC50 for CN(C)c1ccc(/C=C2/NC(=O)NC2=O)cc1 stands at 52.8 µM (active)

----------
testDescription: coupled detection enzyme interference, dose response, artefact control for MgcRacGAP inhibitor project, biochemical, coupled enzyme counter-screen (AID 624351);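 note: signal is the ADP detection kit reading of free GDP without any GAP enzyme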
conditionNotes: ADP Hunter coupled enzyme counter-screen, fluorescence, no MgcRacGAP; series mostly up to 80 µM
The whole screen tested about 2,400 compounds, of which about 1,400 (58%) were called active.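 Rule for the calls: active = inhibition of 30% or more at any tested dose; inconclusive = primary hits over the limit that were never retested; inactive = the rest.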 So high a share suggests a set chosen from earlier hits. The list shows a part of the results.
Pick from active, inactive when you respond.

{"compound": "CCOc1cc(/C=N/n2cnnc2)ccc1O", "className": "active"}
{"compound": "CC(C(=O)NC1CCCCC1)N1CCN(C)CC1 (stereo unspecified)", "className": "inactive"}
{"compound": "COc1cc2nc(=S)n3[nH]c(CCn4nc(C)cc4C)nc3c2cc1OC", "className": "active"}
{"compound": "CC(=O)N1CCN(c2ccc(NCc3cccc(C)c3)cc2)CC1", "className": "active"}

Hey, what did the test say about COc1ccc(N)cc1NC(=O)CN1CCOCC1 ?
inactive

Hey, what did the test say about Cc1ccc2c(c1)[nH]c1c(N3CCN(Cc4ccccc4)CC3)ncnc12 ?
active

Hey, what did the test say about O=C(O)c1cc(N2N=C(C(F)(F)F)/C(=C/C=C/c3ccco3)C2=O)ccc1Cl ?
inactive

Hey, what did the test say about COc1cccc(-c2cc(C(=O)N3CCN(c4ccc(F)cc4)CC3)no2)c1 ?
inactive

Hey, what did the test say about Cc1ccc(CN2CCN(Cc3ccco3)CC2)cc1 ?
inactive

----------
testDescription: coupled detection enzyme interference, dose response, artefact control for MgcRacGAP inhibitor project, biochemical, coupled enzyme counter-screen (AID 624351);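 note: signal is the ADP detection kit reading of free GDP without any GAP enzyme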
conditionNotes: ADP Hunter coupled enzyme counter-screen, fluorescence, no MgcRacGAP; series mostly up to 80 µM
In all, about 2,400 compounds went through this assay and about 1,400 (58%) were called active.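 Rule for the calls: active = inhibition of 30% or more at any tested dose; inconclusive = primary hits over the limit that were never retested; inactive = the rest.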 The set was probably picked from earlier hits. Some of the results follow.
Pick from True for active, False for inactive when you respond.

Worked set:
{"compound": "COc1cc(CN2CCN(Cc3ccc(C(F)(F)F)cc3)CC2)cc(OC)c1OC", "className": "False"}
{"compound": "CC1CC(C)CN(CC(=O)NC(c2ccccc2)c2ccccc2)C1 (stereo not given)", "className": "False"}
{"compound": "Nc1ccc2c(c1)OC1(CCCC1)O2", "className": "True"}
{"compound": "CCOc1cc(CNc2ccc(N3CCOCC3)cc2)cc(Br)c1OCC", "className": "True"}

Let us examine a further case.
Hey, what did the test say about CN(C)c1ccc(N=c2sc3ccccc3n2C)cc1 ?
True
